The measurements presented in this section are drawn from patent US20020173452A1.

System: SW 480 human large intestine cell line
Assay: Growth inhibition test (MTT) for cytotoxic properties on tumour cell lines
Assay type: cell-based
Settings: SW480 cells, growth checked after day 6, read-out: IC50 of the cytotoxic action on tumour cell lines, SW480
Where a SMILES comes first, the peptide text is derived from it. [ ]: non-standard residue; d: D form. The star is where a group is joined. X1 = CO[C@H]1[C@@H](O)[C@@H](C)OC(Oc2ccc(NC(=S)*)cc2)[C@H]1O; X2 = CC[C@@]1(O*)C(=O)OCc2c1cc1n(c2=O)Cc2cc3ccccc3nc2-1
property: IC50 (nM)

* CC[C@@]1(OC(=O)[C@H](NC(=O)[C@@H](Cc2c[nH]cn2)NC(=O)[C@@H](CC(C)C)NC(=O)CNC(=O)[C@H](CC(C)C)NC(=O)[C@H]2CCCN2C(=S)Nc2ccc(OC3O[C@H](C)[C@H](O)[C@H](OC)[C@@H]3O)cc2)C(C)C)C(=O)OCc2c1cc1n(c2=O)Cc2cc3ccccc3nc2-1 (stereo partly drawn) [Example 11] (X1-[dP]LG[dL][dH][dV]-X2) | 200
* CC[C@@]1(OC(=O)[C@H](NC(=O)[C@@H](Cc2c[nH]cn2)NC(=O)CNC(=O)[C@H](CC(C)C)NC(=O)[C@H]2CCCN2C(=S)Nc2ccc(OC3O[C@H](C)[C@H](O)[C@H](OC)[C@@H]3O)cc2)C(C)C)C(=O)OCc2c1cc1n(c2=O)Cc2cc3ccccc3nc2-1.Cl (some centres unmarked) | 150

* * *

Tested on: B16F10 mouse melanoma cell line
Assay: Growth inhibition test (MTT) for cytotoxic properties on tumour cell lines
Assay type: cell-based
Settings: B16F10 cells, growth checked after day 6, read-out: IC50 of the cytotoxic action on tumour cell lines, B16F10
Where a SMILES comes first, the peptide text is derived from it. [ ]: non-standard residue; d: D form. The star is where a group is joined. ξ: configuration not given here. Camptothecin(20R,20-O) = CC[C@]1(O*)C(=O)OCc2c1cc1n(c2=O)Cc2cc3ccccc3nc2-1; X5 = C[C@H]1O[C@@H](Oc2ccc(NC(=S)*)cc2)[C@@H](O)[C@@H](OCC(N)=O)[C@H]1O; X8 = C[C@H]1OC(Oc2ccc(NC(=S)*)cc2)[C@@H](O)[C@@H](OCC(=O)O)[C@H]1O; X4 = CO[C@H]1[C@H](O)[C@@H](Oc2ccc(NC(=S)*)cc2)O[C@@H](C)[C@H]1O; X6 = CO[C@@H]1[C@H](O)[C@H](Oc2ccc(NC(=S)*)cc2)O[C@H](C)[C@@H]1O; X1 = CO[C@H]1[C@@H](O)[C@@H](C)OC(Oc2ccc(NC(=S)*)cc2)[C@H]1O; X2 = CC[C@@]1(O*)C(=O)OCc2c1cc1n(c2=O)Cc2cc3ccccc3nc2-1; Ile(3ξ) = CCC(C)[C@H](N)C(=O)O; ξV = CC(C)C(N)C(=O)O; ξP = O=C(O)C1CCCN1
One threshold, 400 nM, splits the recorded IC50 values: lower ones are 1.0, equal or higher ones are 0.0.

* CC[C@]1(OC(=O)C(NC(=O)[C@@H](CC(N)=O)NC(=O)[C@@H](CC(C)C)NC(=O)CNC(=O)[C@H](CC(C)C)NC(=O)C2CCCN2C(=S)Nc2ccc(O[C@@H]3O[C@H](C)[C@H](O)[C@H](OCC(N)=O)[C@@H]3O)cc2)C(C)C)C(=O)OCc2c1cc1n(c2=O)Cc2cc3ccccc3nc2-1 (stereo partly drawn) [Example 26] (X5-[ξP]LG[dL][dN][ξV]-{Camptothecin(20R,20-O)}) | 0.0
* CC[C@@]1(OC(=O)[C@@H](NC(=O)[C@H](CO)NC(=O)[C@H](CC(C)C)NC(=O)CNC(=O)[C@H](CC(C)C)NC(=O)[C@@H]2CCCN2C(=S)Nc2ccc(O[C@H]3O[C@@H](C)[C@@H](O)[C@@H](OC)[C@@H]3O)cc2)C(C)C)C(=O)OCc2c1cc1n(c2=O)Cc2cc3ccccc3nc2-1 [Example 17] (X4-PLGLSV-X2) | 1.0
* CC[C@]1(OC(=O)[C@H](NC(=O)[C@@H](CC(N)=O)NC(=O)[C@@H](CC(C)C)NC(=O)CNC(=O)[C@H](CC(C)C)NC(=O)C2CCCN2C(=O)CNC(=S)Nc2ccc(O[C@@H]3O[C@H](C)[C@H](O)[C@H](OC)[C@@H]3O)cc2)C(C)C)C(=O)OCc2c1cc1n(c2=O)Cc2cc3ccccc3nc2-1 (stereo partly drawn) [Example 27] (X6-G[ξP]LG[dL][dN][dV]-{Camptothecin(20R,20-O)}) | 1.0
* CC[C@@]1(OC(=O)[C@H](NC(=O)[C@@H](Cc2c[nH]cn2)NC(=O)[C@@H](CC(C)C)NC(=O)CNC(=O)[C@H](CC(C)C)NC(=O)[C@H]2CCCN2C(=S)Nc2ccc(OC3O[C@H](C)[C@H](O)[C@H](OC)[C@@H]3O)cc2)C(C)C)C(=O)OCc2c1cc1n(c2=O)Cc2cc3ccccc3nc2-1 (stereo partly drawn) [Example 11] (X1-[dP]LG[dL][dH][dV]-X2) | 1.0
* CC[C@@]1(OC(=O)[C@@H](NC(=O)[C@H](CCC(=O)O)NC(=O)[C@H](CC(C)C)NC(=O)CNC(=O)[C@H](CC(C)C)NC(=O)[C@@H]2CCCN2C(=S)Nc2ccc(O[C@H]3O[C@@H](C)[C@@H](O)[C@@H](OC)[C@@H]3O)cc2)C(C)C)C(=O)OCc2c1cc1n(c2=O)Cc2cc3ccccc3nc2-1 [Example 19] (X4-PLGLEV-X2) | 0.0
* CCC(C)[C@H](NC(=O)[C@H](CC(C)C)NC(=O)CNC(=O)[C@H](CC(C)C)NC(=O)[C@@H]1CCCN1C(=S)Nc1ccc(O[C@H]2O[C@@H](C)[C@@H](O)[C@@H](OC)[C@@H]2O)cc1)C(=O)N[C@H](C(=O)O[C@]1(CC)C(=O)OCc2c1cc1n(c2=O)Cc2cc3ccccc3nc2-1)C(C)C (stereo partly drawn) [Example 18] (X4-PLGL[Ile(3ξ)]V-X2) | 0.0
* CC[C@@]1(OC(=O)[C@H](NC(=O)[C@@H](Cc2c[nH]cn2)NC(=O)[C@@H](CC(C)C)NC(=O)CNC(=O)[C@H](CC(C)C)NC(=O)[C@H]2CCCN2C(=S)Nc2ccc(OC3O[C@H](C)[C@H](O)[C@H](OC)[C@@H]3O)cc2)C(C)C)C(=O)OCc2c1cc1n(c2=O)Cc2cc3ccccc3nc2-1.Cl (stereo partly drawn) [Example 12] (X1-[dP]LG[dL][dH][dV]-X2) | 1.0
* CC[C@@]1(OC(=O)[C@H](NC(=O)[C@@H](Cc2c[nH]c3ccccc23)NC(=O)[C@@H](CC(C)C)NC(=O)CNC(=O)[C@H](CC(C)C)NC(=O)[C@H]2CCCN2C(=S)Nc2ccc(OC3O[C@H](C)[C@H](O)[C@H](OC)[C@@H]3O)cc2)C(C)C)C(=O)OCc2c1cc1n(c2=O)Cc2cc3ccccc3nc2-1 (stereo partly drawn) [Example 9] (X1-[dP]LG[dL][dW][dV]-X2) | 0.0
* CC[C@@]1(OC(=O)[C@@H](NC(=O)[C@H](Cc2ccccc2)NC(=O)[C@H](CC(C)C)NC(=O)CNC(=O)[C@H](CC(C)C)NC(=O)[C@@H]2CCCN2C(=S)Nc2ccc(O[C@H]3O[C@@H](C)[C@@H](O)[C@@H](OC)[C@@H]3O)cc2)C(C)C)C(=O)OCc2c1cc1n(c2=O)Cc2cc3ccccc3nc2-1 [Example 16] (X4-PLGLFV-X2) | 1.0
* CC[C@@]1(OC(=O)[C@H](NC(=O)[C@@H](CC(N)=O)NC(=O)[C@@H](CC(C)C)NC(=O)CNC(=O)[C@H](CC(C)C)NC(=O)[C@H]2CCCN2C(=S)Nc2ccc(OC3O[C@H](C)[C@H](O)[C@H](OCC(=O)O)[C@@H]3O)cc2)C(C)C)C(=O)OCc2c1cc1n(c2=O)Cc2cc3ccccc3nc2-1 (stereo partly drawn) [Example 23] (X8-[dP]LG[dL][dN][dV]-X2) | 0.0
* CC[C@@]1(OC(=O)[C@@H](NC(=O)[C@@H](C)NC(=O)[C@H](CC(C)C)NC(=O)CNC(=O)[C@H](CC(C)C)NC(=O)[C@@H]2CCCN2C(=S)Nc2ccc(O[C@H]3O[C@@H](C)[C@@H](O)[C@@H](OC)[C@@H]3O)cc2)C(C)C)C(=O)OCc2c1cc1n(c2=O)Cc2cc3ccccc3nc2-1 [Example 14] (X4-PLGL[dA]V-X2) | 0.0
* CC[C@@]1(OC(=O)[C@H](NC(=O)[C@@H](CC(N)=O)NC(=O)[C@@H](CC(C)C)NC(=O)CNC(=O)[C@H](CC(C)C)NC(=O)[C@H]2CCCN2C(=S)Nc2ccc(OC3O[C@H](C)[C@H](O)[C@H](OC)[C@@H]3O)cc2)C(C)C)C(=O)OCc2c1cc1n(c2=O)Cc2cc3ccccc3nc2-1 (stereo partly drawn) [Example 5] (X1-[dP]LG[dL][dN][dV]-X2) | 1.0
